Some binders, each annotated with its measured AChR clusters larger or equal to 3 µm compared to agrin; Exp 3, batch UPX.
Target: T1, Mouse MuSK as it stands on mouse muscle (neuromuscular junctions, C2C12 myotubes) (mouse, UniProt Q61006 22-868)
T1 sequence (looked up): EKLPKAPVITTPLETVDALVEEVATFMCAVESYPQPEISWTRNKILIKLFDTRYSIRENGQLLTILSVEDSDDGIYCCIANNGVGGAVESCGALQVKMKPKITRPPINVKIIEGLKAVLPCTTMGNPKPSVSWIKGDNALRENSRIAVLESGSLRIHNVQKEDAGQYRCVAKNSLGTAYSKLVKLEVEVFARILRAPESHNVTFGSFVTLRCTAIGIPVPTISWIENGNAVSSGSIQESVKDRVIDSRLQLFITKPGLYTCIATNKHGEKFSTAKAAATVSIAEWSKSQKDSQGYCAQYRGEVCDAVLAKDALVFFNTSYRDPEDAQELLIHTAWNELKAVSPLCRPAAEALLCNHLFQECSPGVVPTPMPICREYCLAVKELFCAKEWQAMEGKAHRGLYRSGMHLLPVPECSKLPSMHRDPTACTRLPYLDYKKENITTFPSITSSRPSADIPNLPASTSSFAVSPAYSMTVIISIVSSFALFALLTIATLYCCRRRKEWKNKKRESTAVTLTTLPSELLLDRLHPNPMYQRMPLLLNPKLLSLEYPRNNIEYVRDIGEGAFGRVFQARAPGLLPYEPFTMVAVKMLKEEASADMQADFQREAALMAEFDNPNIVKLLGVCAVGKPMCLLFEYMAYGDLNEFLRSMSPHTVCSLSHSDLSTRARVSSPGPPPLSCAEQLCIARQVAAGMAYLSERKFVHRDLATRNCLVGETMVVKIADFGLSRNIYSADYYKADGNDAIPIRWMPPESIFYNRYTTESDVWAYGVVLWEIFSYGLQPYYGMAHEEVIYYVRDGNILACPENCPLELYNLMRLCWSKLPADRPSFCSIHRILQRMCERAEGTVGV
Assay: cell-based or functional assay
ASSAY METRIC: AChR clusters larger or equal to 3 µm compared to agrin; Exp 3, batch UPX

BINDER	ASSAY RESULT
3F6c (antibody, human IgG1, kappa, L234A L235A, V domains shown) VH: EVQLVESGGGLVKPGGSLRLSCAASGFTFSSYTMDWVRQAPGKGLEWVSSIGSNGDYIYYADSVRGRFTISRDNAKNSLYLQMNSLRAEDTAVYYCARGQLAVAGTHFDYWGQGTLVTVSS VL: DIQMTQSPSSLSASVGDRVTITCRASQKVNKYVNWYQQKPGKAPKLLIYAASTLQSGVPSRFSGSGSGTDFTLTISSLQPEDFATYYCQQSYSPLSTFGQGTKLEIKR	69 % of agrin
3D9b (antibody, human IgG1, kappa, L234A L235A, V domains shown) VH: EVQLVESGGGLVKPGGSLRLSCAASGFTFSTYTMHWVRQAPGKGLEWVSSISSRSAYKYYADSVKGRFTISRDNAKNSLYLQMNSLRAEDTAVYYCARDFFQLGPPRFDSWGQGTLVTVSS VL: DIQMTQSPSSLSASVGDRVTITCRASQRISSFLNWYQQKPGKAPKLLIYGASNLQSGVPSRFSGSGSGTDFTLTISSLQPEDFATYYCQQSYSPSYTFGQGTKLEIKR	91 % of agrin
3D10a (antibody, human IgG1, kappa, L234A L235A, V domains shown) VH: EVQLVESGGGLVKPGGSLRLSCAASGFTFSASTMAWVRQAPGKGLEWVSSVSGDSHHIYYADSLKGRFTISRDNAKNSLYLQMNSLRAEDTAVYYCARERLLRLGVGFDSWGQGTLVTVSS VL: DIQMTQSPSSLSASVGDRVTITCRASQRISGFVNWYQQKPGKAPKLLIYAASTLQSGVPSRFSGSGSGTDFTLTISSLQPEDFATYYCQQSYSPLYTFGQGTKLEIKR	71 % of agrin
